System: Staphylococcus epidermidis
Experimental Protocol: Antibacterial activity against […] Staphylococcus epidermidis ATCC 51625 assessed as inhibition of bacterial growth measured after 24 hrs by MH broth based assay
Type: functional
Assign labels as follows, please: criterion met for MIC below 0.06 µg/mL; criterion not met for MIC equal to or exceeding 0.06 µg/mL.

State whether 0.06 µg/mL exceeds MIC recorded for C=C[C@]1(C)C[C@@H](OC(=O)CSC2=NC(C)=C(C(C)=O)C(C)N2)[C@]2(C)[C@H](C)CC[C@]3(CCC(=O)[C@H]32)[C@@H](C)[C@@H]1O (stereo partly specified) .
criterion not met

// query: C=C[C@]1(C)C[C@@H](OC(=O)CSC2=NC(C)=C(C(=O)OC)C(C)N2)[C@]2(C)[C@H](C)CC[C@]3(CCC(=O)[C@H]32)[C@@H](C)[C@@H]1O (stereo partly specified)
criterion not met

Try this molecule too: C=C[C@]1(C)C[C@@H](OC(=O)CSc2nc(C)c(C(=O)OCC)c(C)n2)[C@]2(C)[C@H](C)CC[C@]3(CCC(=O)[C@H]32)[C@@H](C)[C@@H]1O
criterion met

Now this one: C=C[C@]1(C)C[C@@H](OC(=O)CSc2nc(C)c(C(C)=O)c(C)n2)[C@]2(C)[C@H](C)CC[C@]3(CCC(=O)[C@H]32)[C@@H](C)[C@@H]1O
criterion met

Same again, this time with C=C[C@]1(C)C[C@@H](OC(=O)CSc2nc(C)c(C(=O)OC)c(C)n2)[C@]2(C)[C@H](C)CC[C@]3(CCC(=O)[C@H]32)[C@@H](C)[C@@H]1O
criterion met
